The values you see were collected from patent US7645752B2.

biological target: human cloned 5-HT6 receptors (Homo sapiens); construct: expressed in transfected cells; host or cells: HeLa cells; test: 5-HT6 binding affinity, [3H]-LSD displacement on membranes of Hela cells
Sequence (P50406 whole entry): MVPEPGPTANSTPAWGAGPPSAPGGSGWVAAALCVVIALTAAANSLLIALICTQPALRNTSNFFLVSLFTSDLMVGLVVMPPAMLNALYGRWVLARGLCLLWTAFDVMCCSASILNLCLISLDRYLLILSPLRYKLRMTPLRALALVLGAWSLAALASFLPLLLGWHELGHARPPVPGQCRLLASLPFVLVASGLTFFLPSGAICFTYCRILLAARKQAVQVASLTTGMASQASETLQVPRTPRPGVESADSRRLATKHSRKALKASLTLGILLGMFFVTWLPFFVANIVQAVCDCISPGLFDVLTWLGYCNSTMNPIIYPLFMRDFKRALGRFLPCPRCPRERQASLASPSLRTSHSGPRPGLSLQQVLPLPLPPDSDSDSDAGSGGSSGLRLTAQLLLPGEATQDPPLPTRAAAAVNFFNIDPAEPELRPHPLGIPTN
Criterion: Ki strictly under 40 nM. Met: T. Not met: F.

Before answering, review these 5 worked examples.
Smiles notation	System tested	Label class
CCNCCc1ccc2c(S(=O)(=O)c3ccccc3)c[nH]c2c1	human cloned 5-HT6 receptors (Homo sapiens)	F
CC(C)NCCc1ccc2[nH]cc(S(=O)(=O)c3ccccc3)c2c1	human cloned 5-HT6 receptors (Homo sapiens)	F
CCCNCCc1ccc2[nH]cc(S(=O)(=O)c3ccccc3)c2c1	human cloned 5-HT6 receptors (Homo sapiens)	T
NCCc1ccc2[nH]cc(S(=O)(=O)c3ccccc3)c2c1	human cloned 5-HT6 receptors (Homo sapiens)	T
O=S(=O)(c1ccccc1)c1c[nH]c2c(CCNC3CC3)cccc12	human cloned 5-HT6 receptors (Homo sapiens)	T

Q) Record `CCc1[nH]c2ccc(CCNC)cc2c1S(=O)(=O)c1ccccc1` : is its Ki strictly below 40 nM?
A) T

Q) // same read-out, input: `CNCCc1ccc2[nH]c(C)c(S(=O)(=O)c3ccccc3)c2c1`
A) F

====

molecular target: human cloned 5-HT6 receptors (Homo sapiens); construct: expressed in transfected cells; host or cells: HeLa cells; assay: 5-HT6 binding affinity, [3H]-LSD displacement on membranes of Hela cells; conditions: Table 1; [3H]-LSD 3.0 nM, Hela cell membranes; read-out: Ki (nM) @ 5-HT6 receptor
Endpoint label: Ki (nM)
Please state the figure in nM; there is no need to write the unit.

Please review the entries below; each comes with its answer.
Smiles notation	Units text	Ki
CNCCc1cccc2c(S(=O)(=O)c3ccccc3)c[nH]c12	nM	2.3
NCCc1cccc2c(S(=O)(=O)c3ccccc3)c[nH]c12	nM	1.5
CC(C)NCCc1cccc2[nH]cc(S(=O)(=O)c3ccccc3)c12	nM	194

Q) What value of measured Ki is listed for `CCN(CC)CCc1ccc2[nH]cc(S(=O)(=O)c3ccccc3)c2c1` ?
A) 17

Q) // same read-out, input: `CN(C)CCCNCCc1cccc2[nH]cc(S(=O)(=O)c3ccccc3)c12`
A) 91.5

Q) // same read-out, input: `O=S(=O)(c1ccccc1)c1c[nH]c2c(CCN3CCOCC3)cccc12`
A) 99

====

target: human 5-HT2A receptor (Homo sapiens); experiment: 5-HT2A FLIPR assay, antagonism of DOI calcium response in CHO cells; conditions: read-out: 5-HT2A IC50; antagonism of 3 nM DOI, CHO cells, FLIPR
Sequence (P28223 whole entry): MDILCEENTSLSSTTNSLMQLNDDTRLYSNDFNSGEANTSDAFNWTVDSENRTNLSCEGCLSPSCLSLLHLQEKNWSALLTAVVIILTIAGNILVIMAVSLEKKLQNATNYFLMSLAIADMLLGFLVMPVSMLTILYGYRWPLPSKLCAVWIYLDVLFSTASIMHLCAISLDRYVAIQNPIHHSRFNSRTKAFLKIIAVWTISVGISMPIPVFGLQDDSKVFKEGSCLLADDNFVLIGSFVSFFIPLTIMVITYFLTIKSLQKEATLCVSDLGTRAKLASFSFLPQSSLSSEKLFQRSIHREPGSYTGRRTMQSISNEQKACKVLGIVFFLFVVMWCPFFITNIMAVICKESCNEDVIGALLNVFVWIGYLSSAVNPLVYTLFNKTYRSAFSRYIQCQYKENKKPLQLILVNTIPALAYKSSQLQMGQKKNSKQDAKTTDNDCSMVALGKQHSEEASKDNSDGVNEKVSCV
Endpoint label: log10(IC50) (log10 of the value in nM)
On a log10 scale: recorded IC50, unit nM.

Please review the entries below; each comes with its answer.
Smiles notation	System tested	Test value
O=S(=O)(c1ccccc1)c1c[nH]c2cccc(CCCN3CCCCC3)c12	human 5-HT2A receptor (Homo sapiens)	3.90
CCN(C)CCc1cccc2[nH]cc(S(=O)(=O)c3ccccc3)c12	human 5-HT2A receptor (Homo sapiens)	2.92

Q) What value of measured log10(IC50) is listed for `CN(C)CCc1cccc2[nH]cc(S(=O)(=O)c3ccccc3)c12` ?
A) 2.66

Q) // same read-out, input: `O=S(=O)(c1ccccc1)c1c[nH]c2cccc(CCNC3CCCC3)c12`
A) 1.49

Q) // same read-out, input: `CC(C)NCCc1cccc2[nH]cc(S(=O)(=O)c3ccccc3)c12`
A) 2.81
